# Target Desc: ALPK1 (Homo sapiens (Human), UniProt Q96QP1)
# Sequence (Q96QP1 whole entry): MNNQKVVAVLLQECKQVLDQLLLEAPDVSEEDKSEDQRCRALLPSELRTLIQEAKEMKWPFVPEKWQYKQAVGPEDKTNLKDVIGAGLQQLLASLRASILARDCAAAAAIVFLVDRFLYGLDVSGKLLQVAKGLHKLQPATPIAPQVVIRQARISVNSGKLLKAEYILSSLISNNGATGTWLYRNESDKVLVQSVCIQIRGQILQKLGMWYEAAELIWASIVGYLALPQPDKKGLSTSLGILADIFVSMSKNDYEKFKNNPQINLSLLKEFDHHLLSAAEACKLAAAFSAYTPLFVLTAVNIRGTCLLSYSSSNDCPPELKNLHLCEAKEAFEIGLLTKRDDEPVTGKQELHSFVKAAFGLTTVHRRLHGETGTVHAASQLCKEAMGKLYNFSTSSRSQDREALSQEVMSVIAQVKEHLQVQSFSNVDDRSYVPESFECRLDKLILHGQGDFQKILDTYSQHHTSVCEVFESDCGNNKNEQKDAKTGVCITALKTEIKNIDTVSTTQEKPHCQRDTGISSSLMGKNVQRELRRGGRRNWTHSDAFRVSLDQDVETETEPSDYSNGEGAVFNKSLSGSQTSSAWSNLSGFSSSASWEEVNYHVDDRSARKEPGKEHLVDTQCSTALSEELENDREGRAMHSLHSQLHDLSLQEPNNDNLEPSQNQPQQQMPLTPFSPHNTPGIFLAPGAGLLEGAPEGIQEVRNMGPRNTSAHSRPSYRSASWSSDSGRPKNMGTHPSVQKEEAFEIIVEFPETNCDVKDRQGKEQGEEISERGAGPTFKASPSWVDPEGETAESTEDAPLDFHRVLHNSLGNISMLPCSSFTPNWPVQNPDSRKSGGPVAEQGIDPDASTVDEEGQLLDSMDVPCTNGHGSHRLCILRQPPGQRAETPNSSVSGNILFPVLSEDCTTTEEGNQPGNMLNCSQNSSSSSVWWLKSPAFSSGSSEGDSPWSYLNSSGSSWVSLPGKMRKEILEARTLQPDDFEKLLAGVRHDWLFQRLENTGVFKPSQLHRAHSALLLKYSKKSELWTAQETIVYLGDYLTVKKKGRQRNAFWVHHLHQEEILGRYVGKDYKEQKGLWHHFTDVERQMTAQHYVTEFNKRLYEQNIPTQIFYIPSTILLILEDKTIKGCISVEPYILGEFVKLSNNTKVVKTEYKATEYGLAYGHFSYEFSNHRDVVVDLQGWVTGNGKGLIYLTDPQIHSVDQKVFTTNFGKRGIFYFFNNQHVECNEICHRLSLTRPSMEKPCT
# Measurement Notes: ALPK1 in vitro kinase assay (HTRF of TIFA phosphorylation)
# Format: biochemical
Field 'label' (enum: true (1) / false (0)). Set to true (1) when IC50 is strictly under 0.05 µM; else false (0).

Qu. Please let me know if CNS(=O)(=O)[C@H]1C[C@H](CNC(=O)Nc2nc(C(C)(C)c3ccc(OC)cc3)cs2)C1 shows IC50 below 0.05 µM.
Ans. true (1)

Qu. Please let me know if CC(C)(c1ccc(Br)cc1)c1csc(NC(=O)NCc2ccc(NCCO)cc2)n1 shows IC50 below 0.05 µM.
Ans. false (0)

Qu. Please let me know if COc1ccc(C(C)(C)c2csc(NC(=O)NCc3ccc(N4CCC(N)C4)nc3)n2)cc1 (stereo not shown) [Example A199] shows IC50 below 0.05 µM.
Ans. true (1)

Qu. Please let me know if CC(C)(c1ccc(Br)cc1)c1csc(NC(=O)NCc2ccc(N3CCC(N)CC3)cc2)n1 shows IC50 below 0.05 µM.
Ans. true (1)

Qu. Please let me know if COc1ccc(C(C)(C)c2csc(NC(=O)NC(C)c3cc(F)c(N4CCNCC4)cc3F)n2)cc1 (stereo not shown) shows IC50 below 0.05 µM.
Ans. false (0)

Qu. Please let me know if C#C[C@](C)(c1ccc(Cl)cc1)c1csc(NC(=O)NC[C@H](O)CO)n1 shows IC50 below 0.05 µM.
Ans. false (0)

Qu. Please let me know if CCCN1CCC(NC(=O)c2ccc(CNC(=O)Nc3nc(C(C)(C)c4ccc(OC)cc4)cs3)cn2)CC1 shows IC50 below 0.05 µM.
Ans. true (1)

Qu. Please let me know if Cc1cc(CNC(=O)Nc2nc(C(C)(C)c3ccc(Br)cc3)cs2)ccc1N1CCNCC1 shows IC50 below 0.05 µM.
Ans. false (0)

Qu. Please let me know if CC(C)(c1ccc(Br)cc1)c1csc(NC(=O)NCCS(C)(=O)=O)n1 shows IC50 below 0.05 µM.
Ans. false (0)

Qu. Please let me know if CC(C)(c1ccc(Br)cc1)c1csc(NC(=O)NCc2ccc(N3CCNCC3)c(F)c2)n1 shows IC50 below 0.05 µM.
Ans. true (1)

Qu. Please let me know if COc1ccc(C(C)(C)c2csc(NC(=O)NCCS(N)(=O)=O)n2)cc1 shows IC50 below 0.05 µM.
Ans. true (1)

Qu. Please let me know if CC(C)(c1ccc(Br)cc1)c1csc(NC(=O)NCc2cnc(N3CCC(O)CC3)nc2)n1 shows IC50 below 0.05 µM.
Ans. false (0)

Qu. Please let me know if CN(C)C1CCN(c2ccc(CNC(=O)Nc3nc(C(C)(C)c4ccc(Br)cc4)cs3)cn2)C1 (stereo not shown) shows IC50 below 0.05 µM.
Ans. true (1)

Qu. Please let me know if C#CC(C)(c1ccc(Br)cc1)c1csc(NC(=O)NCCO)n1 (stereo not shown) shows IC50 below 0.05 µM.
Ans. true (1)

Qu. Please let me know if CC(C)(c1ccc(Br)cc1)c1csc(NC(=O)NCc2ccc(N3CCNC(=O)C3)cc2)n1 shows IC50 below 0.05 µM.
Ans. false (0)

Qu. Please let me know if COCCNC(=O)Nc1nc(C(C)(C)c2ccc(OC)cc2)cs1 shows IC50 below 0.05 µM.
Ans. false (0)

---

# System: ALPK1-dependent NFκB reporter gene activation in HEK293 cells stably expressing an NF-kB reporter (G9 cells)
# Measurement Notes: NFκB gene reporter alkaline phosphatase assay
# Assay type: cell-based
# Cond: Homo sapiens, HEK293; read-out: NFkB assay IC50
Readout Kind: pIC50
Schema: pIC50 number; meaning minus log10 of the concentration expressed in molar units.

Reported pIC50 ( C#C[C@@](C)(c1ccc(Br)cc1)c1csc(NC(=O)NCC(O)CO)n1 (stereo in doubt) [Example A278] ) = 6.28

Reported pIC50 ( COc1ccc(C(C)(C)c2csc(NC(=O)NCc3cnc(N4CCNCC4)c(F)c3)n2)cc1 [Example A036] ) = 6.21

Reported pIC50 ( C#CC(C)(c1ccc(Cl)cc1)c1csc(NC(=O)NCCS(N)(=O)=O)n1 (centres unmarked) [Example A243] ) = 6.23

Reported pIC50 ( COc1ccc(C(C)(C)c2csc(NC(=O)NCc3cnc(N4CCN(CCO)CC4)nc3)n2)cc1 [Example A208] ) = 6.12

Reported pIC50 ( CC(C)(c1ccc(Br)cc1)c1csc(NC(=O)NCc2ccc(N3CCNCC3)cc2)n1 [Example A027] ) = 5.84

Reported pIC50 ( CC(C)(c1ccc(Br)cc1)c1csc(NC(=O)NCc2ccc(NCCO)cc2)n1 [Example A108] ) = 6.09

Reported pIC50 ( CCC(C)(c1ccc(OC)cc1)c1csc(NC(=O)NC(C)c2ccc(N3CCNCC3)cc2)n1 (centres unmarked) [Example A076] ) = 5.35

Reported pIC50 ( COc1ccc(C(C)(C)c2csc(NC(=O)NCc3ccc(NC4CCNCC4)cc3)n2)cc1 [Example A041] ) = 5.73

---

For each record, write down the corresponding pIC50.
# Target Desc: ALPK1 (Homo sapiens (Human), UniProt Q96QP1)
# Measurement Notes: ALPK1 in vitro kinase assay (HTRF of TIFA phosphorylation)
# Format: biochemical
# Cond: ALPK1 2 nM, TIFA substrate, ADP-Heptose activator, HTRF readout
Structures can show the parent of a compound that is named as a salt.
Schema: pIC50 number; meaning minus log10 of the concentration expressed in molar units.

Reported pIC50 ( C#CC(CC)(c1ccc(Br)cc1)c1csc(NC(C)=O)n1 (centres unmarked) ) = 6.84

Reported pIC50 ( C#C[C@@](C)(c1ccc(Cl)cc1)c1csc(NC(=O)c2c(F)cc(N3CCC(N)C3)cc2F)n1 (stereo in doubt) [Example B088] ) = 7.38

Reported pIC50 ( C#CC(C)(c1ccc(Cl)cc1)c1csc(NC(=O)c2c(Cl)cc(N3CCNCC3)cc2Cl)n1 (centres unmarked) ) = 6.51

Reported pIC50 ( COc1ccc(C(C)(C)c2csc(NC(=O)c3ccc(N4CCNCC4C)cc3)n2)cc1 (centres unmarked) ) = 6.52

Reported pIC50 ( COc1ccc(C(C)(C)c2csc(NC(=O)c3ccc(CN4CCNCC4C)cc3)n2)cc1 (centres unmarked) ) = 6.90

Reported pIC50 ( COc1ccc(C(C)(C)c2csc(NC(=O)c3ccc(C4(O)CCNCC4)cc3)n2)cc1 [Example B049, hydrochloride] ) = 6.34

Reported pIC50 ( CC(c1ccc(Cl)cc1)(c1csc(NC(=O)c2c(F)cc(N3CCNCC3)cc2F)n1)C1CC1 (centres unmarked) ) = 7.60

Reported pIC50 ( C#CC(C)(c1ccc(OC)cc1)c1csc(NC(=O)c2c(F)cc(N3CCNC(CO)C3)cc2F)n1 (centres unmarked) ) = 7.55

---

For each record, write down the corresponding IC50.
# Target Desc: ALPK1 (Homo sapiens (Human))
# Measurement Notes: ALPK1 in vitro kinase assay (HTRF of TIFA phosphorylation)
# Type: biochemical
Numbers only here, please. The scale is nM.

Reported IC50 ( C#CC(C)(c1ccc(Cl)cc1)c1csc(NC(=O)NC2CCN(Cc3ccc(C)cc3)C2)n1 (stereo not shown) [Example A309] ) = 1410

Reported IC50 ( C#C[C@@](C)(c1ccc(Cl)cc1)c1csc(NC(=O)N2CC(CN3CCNCC3)C2)n1 (stereo in doubt) [Example A292] ) = 43

Reported IC50 ( CC(C)(c1ccc(Br)cc1)c1csc(NC(=O)NCc2cnc(N3CCN(CCO)CC3)nc2)n1 [Example A103] ) = 97

Reported IC50 ( COc1ccc(C(C)(C)c2csc(NC(=O)NCCCS(C)(=O)=O)n2)cc1 [Example A136] ) = 209

Reported IC50 ( CC(C)(c1ccc(Br)cc1)c1csc(NC(=O)NCc2ccc(NCCN)cc2)n1 [Example A205] ) = 59

Reported IC50 ( CC(C)(c1ccc(Br)cc1)c1csc(NC(=O)NCc2ccc(N3CCNCC3)c(C(F)(F)F)c2)n1 [Example A049] ) = 119

Reported IC50 ( CC(C)(c1ccc(Cl)cc1)c1csc(NC(=O)NCc2ccc(N3CCNCC3)cc2)n1 [Example A046] ) = 79

Reported IC50 ( CNC(=O)c1cc(CNC(=O)Nc2nc(C(C)(C)c3ccc(OC)cc3)cs2)ccc1N1CCNCC1 [Example A065] ) = 30

Reported IC50 ( C#CC(C)(c1ccc(Cl)cc1)c1csc(NC(=O)N(C)CCO)n1 (stereo not shown) [Example A266] ) = 546

Reported IC50 ( C#CC(C)(c1ccc(Br)cc1)c1csc(NC(=O)N2CC(CO)C2)n1 (stereo not shown) [Example A165] ) = 138

Reported IC50 ( COc1ccc(C(C)(C)c2csc(NC(=O)NCCCN3CCNC(C)C3)n2)cc1 (stereo not shown) [Example A228] ) = 100

Reported IC50 ( COc1ccc(C(C)(C)c2csc(NC(=O)N3CC(c4ccc(N5CCNCC5)cc4)C3)n2)cc1 [Example A233] ) = 43

Reported IC50 ( CC(C)(c1ccc(Br)cc1)c1csc(NC(=O)NCCN2CCNCC2)n1 [Example A177] ) = 249

Reported IC50 ( CC(C)(c1ccc(Br)cn1)c1csc(NC(=O)NCc2ccc(N3CCNCC3)c(F)c2)n1 [Example A057] ) = 246

Reported IC50 ( COc1ccc(C(C)(C)c2csc(NC(=O)NCc3ccc(N4CC5CC4CN5)cc3)n2)cc1 (stereo not shown) [Example A062] ) = 60

Reported IC50 ( C#CC(C)(c1ccc(Cl)cc1)c1csc(NC(=O)N2CC(N3CCNCC3)C2)n1 (stereo not shown) [Example A261] ) = 83
